Cited source for all entries: ChEMBL document CHEMBL3885881

- Species on record: Rattus norvegicus
- TEST SUMMARY: DrugMatrix - Regimen: Daily Repeat
- Assay type: toxicity, organism-based, Sprague-Dawley
- Set-up: regimen Daily Repeat, gender Male, age 6-8 weeks
- RUN CONDITIONS: in vivo, po, 80 mg/kg, 120 h, tissue Blood, route oral GAVAGE, dose level Low, time 5 day, vehicle .5 % CMC
MEASURE NAME: ABSOLUTE EOSINOPHIL (cells/µL)
Quick note: give the figure in cells/µL, leave out the unit.

// returns reported ABSOLUTE EOSINOPHIL for input O=c1cc(-c2ccccc2)oc2ccc3ccccc3c12
62

----------
- Organism: Rattus norvegicus
- TEST SUMMARY: DrugMatrix - Regimen: Daily Repeat
- Format: toxicity, organism-based, Sprague-Dawley
- Set-up: regimen Daily Repeat, gender Male, age 6-8 weeks
- RUN CONDITIONS: in vivo, po, 0 mg/kg, 120 h, tissue Blood, route oral GAVAGE, dose level Control, time 5 day, vehicle 100 % SALINE
MEASURE NAME: HEMATOCRIT (%)
Quick note: give the figure in %, leave out the unit.

// returns reported HEMATOCRIT for input Oc1ccccc1O
35.87

// returns reported HEMATOCRIT for input CCCc1nn(C)c2c(=O)[nH]c(-c3cc(S(=O)(=O)N4CCN(C)CC4)ccc3OCC)nc12
33.55

// returns reported HEMATOCRIT for input CC(=O)OCC(CCn1cnc2cnc(N)nc21)COC(C)=O
33.55

Read the next record carefully.
// returns reported HEMATOCRIT for input Cc1cc(CC(=O)O)n(C)c1C(=O)c1ccc(Cl)cc1 [ZOMEPIRAC]
35.87
